These data points were gathered from PubChem BioAssay (EPA / NIEHS).

Read-out: Monocyte Chemoattractant Protein-1 (MCP1), CCL2 (gene 6347)
Assay: BSK_4H_MCP1: BioMAP Diversity Plus: 4H Assay for Monocyte Chemoattractant Protein-1 (MCP1) Biomarker Activity (AID 2283018)
Conditions: primary human endothelial cells (HUVEC); actives raise or lower the signal
Activity calls are given as the source filed them. The calls were made as follows: active = hit-call score of the fitted dose curve at least 0.9, where 1 is the maximum; inactive = score below 0.9.

# SMILES REPRESENTATION, outcome
rows = [
    ("Cn1cnc2c1c(=O)[nH]c(=O)n2C", "inactive"),
    ("S=c1[nH]c2ccccc2s1", "inactive"),
    ("CC(=O)S[C@H](C(=O)N[C@H]1Cc2ccccc2[C@H]2CCC[C@@H](C(=O)O)N2C1=O)C(C)C", "inactive"),
    ("Cc1cn([C@H]2C=C[C@@H](CO)O2)c(=O)[nH]c1=O", "inactive"),
    ("Oc1ccccc1O", "inactive"),
    ("OCC(CO)n1cnc(-c2ccc(F)cc2)c1-c1ccnc(Oc2ccccc2)n1", "inactive"),
]

###

Read-out: Insulin Like Growth Factor 1 (IGF1), IGF1 (gene 3479)
Assay: LTEA_HepaRG_IGF1: Life Technologies and Expression Analysis (LTEA) Assay for Insulin Like Growth Factor 1 (IGF1) using HepaRG (AID 2283506)
Conditions: mRNA level, 48 h; actives raise or lower the signal
The source made the active and inactive calls. The calls were made as follows: active = hit-call score of the fitted dose curve at least 0.9, where 1 is the maximum; inactive = score below 0.9.

# MOLECULE, AC50
records = [
    ("NC1CCCCC1", "inactive"),
    ("CC(=O)CC(c1ccccc1)c1c(O)c2ccccc2oc1=O (centres undefined)", "inactive"),
    ("O=C1CCCCC1", "inactive"),
    ("CC(=O)O[C@]1(C(C)=O)CC[C@H]2[C@@H]3C=C(Cl)C4=CC(=O)[C@@H]5C[C@@H]5[C@]4(C)[C@H]3CC[C@@]21C", "50 µM (active)"),
]

###

Experiment: ATG_ISRE_CIS: Attagene CIS-FACTORIAL HepG2 Assay for human Interferon Regulatory Factor 1 (IRF1) binding to an Interferon-Stimulated Response Element (ISRE) (AID 2282948)
Details: HepG2 ISRE cis-reporter (Attagene), mRNA transcription readout; actives raise or lower the signal
Description: ATG_CIS is a cell-based, multiplexed-readout assay that uses HepG2, a human liver cell line, with measurements taken at 24 hours after chemical dosing in a 24-well plate.ATG_ISRE_CIS is one of 52 assay component(s) measured or calculated from the ATG_CIS assay. […] This assay endpoint, ATG_ISRE_CIS, was analyzed with bidirectional fitting relative to DMSO as the negative control and baseline of activity. […]
Activity calls are given as the source filed them. Rule for the calls: active = hit-call score of the fitted dose curve at least 0.9, where 1 is the maximum; inactive = score below 0.9.
Possible outcomes: true (1) for active, false (0) for inactive

# MOLECULE, QUALITATIVE LABEL
data = [
    ("COC(=O)CCCC(=O)OC", "false (0)"),
    ("CSc1ccc(Oc2ccc(S(N)(=O)=O)cc2CN(C)C)cc1C", "false (0)"),
    ("O=C1c2c(O)cccc2Cc2cccc(O)c21", "false (0)"),
    ("C=CCCCCCCCCCCCC", "false (0)"),
    ("CC(COCC(C)OC(=O)c1ccccc1)OC(=O)c1ccccc1 (stereo unspecified)", "false (0)"),
    ("Cc1cn([C@H]2C=C[C@@H](CO)O2)c(=O)[nH]c1=O", "false (0)"),
    ("CC1=C(C)S(=O)(=O)CCS1(=O)=O", "false (0)"),
    ("CN(C)C(=O)NC1(c2ccccc2)CCN(CC[C@@]2(c3ccc(F)c(F)c3)CN(C(=O)c3ccccc3)CCO2)CC1", "false (0)"),
    ("S=c1[nH]c2ccccc2s1", "true (1)"),
    ("Cc1cc(SC2=C(O)C[C@@](CCc3ccc(N)cc3)(C(C)C)OC2=O)c(C(C)(C)C)cc1CO", "false (0)"),
    ("CCCCCCC(C=O)=Cc1ccccc1", "false (0)"),
    ("NC(=Nc1ccccc1)Nc1ccccc1", "true (1)"),
    ("CS(=O)(=O)c1ccc([C@@H](C[C@H]2CCC(=O)C2)C(=O)Nc2cnccn2)cc1Cl", "false (0)"),
    ("O=C1OC(c2ccc(O)cc2)(c2ccc(O)cc2)c2ccccc21", "true (1)"),
    ("C/C=C/c1ccc(OC)cc1", "false (0)"),
    ("CCc1cc(C2=C(C(=O)O)N(c3ccccc3C(F)(F)F)S(=O)(=O)c3ccccc32)cc2c1OCO2", "true (1)"),
    ("O=C1CCCCC1", "false (0)"),
    ("CC(C)(C)c1ccccc1", "false (0)"),
    ("Cn1cnc2c1c(=O)[nH]c(=O)n2C", "false (0)"),
    ("CC(=O)CC(c1ccccc1)c1c(O)c2ccccc2oc1=O (stereo unspecified)", "false (0)"),
    ("NC=O", "false (0)"),
]

###

Experiment: Tanguay_ZF_120hpf_BRAI_legacy: (Legacy) Oregon State University Tanguay Lab 120 Hour Post-fertilization zebrafish Assay for Brain Malformation (AID 2283641)
Records with an inconclusive call do not appear. Active and inactive are the calls of the source. Rule for the calls: active = hit-call score of the fitted dose curve at least 0.9, where 1 is the maximum; inconclusive = response in the unintended direction; inactive = score below 0.9.
Possible outcomes: T = active, F = inactive

# MOLECULE, QUALITATIVE LABEL
measured = [
    ("CO[C@@H]1COCC[C@@H]1N[C@@H]1CC[C@@](C(=O)N2CCc3ncc(C(F)(F)F)cc3C2)(C(C)C)C1", "F"),
    ("OCC(O)CO", "F"),
    ("CCCCCCCCCCCCCCOS(=O)(=O)O", "T"),
    ("CC(N)=O", "F"),
    ("CCCCCCC(C=O)=Cc1ccccc1", "F"),
    ("CCCC(=O)O", "F"),
    ("O=C(NS(=O)(=O)/C=C/c1cccs1)c1ccc(F)cc1Br", "F"),
    ("CCc1cc(C2=C(C(=O)O)N(c3ccccc3C(F)(F)F)S(=O)(=O)c3ccccc32)cc2c1OCO2", "F"),
    ("Oc1ccc(O)cc1", "F"),
    ("O=Cc1ccccc1C=O", "F"),
    ("NCCOCCOCCN", "F"),
    ("CCCCCCCCCCCCCCCCO", "F"),
    ("C/C=C/c1ccc(OC)cc1", "F"),
    ("O=C(O)CN(CC(=O)O)CC(=O)O", "F"),
    ("COC(=O)CCCC(=O)OC", "F"),
    ("C=CCc1ccc(OC)c(OC)c1", "F"),
    ("COc1ccc(OC(F)(F)F)cc1CN[C@H]1CCCN[C@H]1c1ccccc1", "F"),
    ("CCCCC(CC)CO (stereo unspecified)", "F"),
    ("O=C(O)c1[nH]n(-c2ccc(S(=O)(=O)O)cc2)c(=O)c1N=Nc1ccc(S(=O)(=O)O)cc1", "F"),
    ("CC(C)(C)c1ccccc1", "F"),
    ("COC(=O)CCC(=O)OC", "F"),
    ("Cc1cn([C@H]2C=C[C@@H](CO)O2)c(=O)[nH]c1=O", "F"),
    ("NC1CCCCC1", "F"),
    ("CN(C)CCCN(C)CCCN(C)C", "F"),
    ("CC1=C(C)S(=O)(=O)CCS1(=O)=O", "F"),
    ("CN(C)C(=O)NC1(c2ccccc2)CCN(CCC[C@]2(c3ccc(Cl)c(Cl)c3)CCCN(C(=O)c3ccccc3)C2)CC1", "F"),
    ("CC(=O)O[C@]1(C(C)=O)CC[C@H]2[C@@H]3C=C(Cl)C4=CC(=O)[C@@H]5C[C@@H]5[C@]4(C)[C@H]3CC[C@@]21C", "F"),
    ("O=C1CCCCC1", "F"),
    ("CC1(C)C(=O)NC(=O)N1CO", "F"),
    ("CCN(CC)CCOc1ccc(C(=C(Cl)c2ccccc2)c2ccccc2)cc1", "F"),
    ("O=C1NC(=O)C(c2ccccc2)(c2ccccc2)N1", "F"),
    ("CCc1nc(N)nc(N)c1-c1ccc(Cl)cc1", "F"),
    ("O=C(N[C@@H](c1ccccc1)[C@@H]1CCCCN1)c1cccc(C(F)(F)F)c1Cl", "F"),
    ("CC(COCC(C)OC(=O)c1ccccc1)OC(=O)c1ccccc1 (stereo unspecified)", "F"),
    ("OCC(CO)n1cnc(-c2ccc(F)cc2)c1-c1ccnc(Oc2ccccc2)n1", "F"),
    ("C/C=C/C=C/C(=O)O", "F"),
    ("C=CCCCCCCCCCCCC", "F"),
    ("NC=O", "F"),
    ("CSc1ccc(Oc2ccc(S(N)(=O)=O)cc2CN(C)C)cc1C", "F"),
    ("c1ccc2occc2c1", "F"),
    ("Cc1ccc(-c2cc(C(F)(F)F)nn2-c2ccc(S(N)(=O)=O)cc2)cc1", "F"),
    ("Cc1c(C)c2c(c(C)c1O)CCC(C)(COc1ccc(CC3SC(=O)NC3=O)cc1)O2 (stereo unspecified)", "F"),
    ("CCCC[C@H]1CN(CC2CCOCC2)C(=O)OC12CCN(C1(C)CCN(C(=O)c3c(C)ncnc3C)CC1)CC2", "F"),
    ("CCCCOC(=O)CCCCC(=O)OCCCC", "F"),
    ("COC(=O)[C@H]1[C@H]2C[C@@H]3c4[nH]c5cc(OC)ccc5c4CCN3C[C@H]2C[C@@H](OC(=O)c2cc(OC)c(OC)c(OC)c2)[C@@H]1OC", "F"),
    ("Cn1cnc2c1c(=O)[nH]c(=O)n2C", "F"),
]
